Each recorded value in this set is attributed to PubChem BioAssay AID624491.

test system: D54 ERlucT glycosylation luciferase reporter, luminescence, 24 h; assay: N-linked glycosylation inhibitors, luciferase reporter, dose response, D54 ERlucT cells, luminescence, cherry-picks (AID 624491);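 note: signal gain reflects blocked N-linked glycosylation of a luciferase reporter; actives raise luciferase signal so AC26 marks activators of the reporter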
Each entry below carries its reported AC26.

Below: 8 molecules and their reported AC26.
{"Molecule": "Cc1ccc(C(=O)Nc2ccccc2C(=O)N2CC(C)OC(C)C2)cc1 (configuration not stated)", "AC26": "1330 nM"}
{"Molecule": "Cc1cc(=O)[nH]c(N/N=C/c2cc(C)n(CC(F)(F)F)c2C)n1", "AC26": "47.6 nM"}
{"Molecule": "COc1cc2c(cc1OC)CN(C(=O)c1ccc3nc[nH]c3c1)CC2", "AC26": "6320 nM"}
{"Molecule": "CC(=O)C1=C(O)C(=O)N(c2ccc(Br)cn2)C1c1ccc(Br)cc1 (configuration not stated)", "AC26": "491 nM"}
{"Molecule": "OC1CCCN(Cc2ccc3ccc4cccc5ccc2c3c45)C1 (configuration not stated)", "AC26": "4270 nM"}
{"Molecule": "Cn1c(C(=O)NC2CCCCCC2)cc2c(=O)n(C)c3ccccc3c21", "AC26": "4470 nM"}
{"Molecule": "CCN1Cc2c(/C=C/c3ccccc3)nc3ccc(OC)cc3c2N(c2cccc(Cl)c2)C1", "AC26": "14300 nM"}
{"Molecule": "CSc1ccc(/C=N/NC(=O)c2ccccc2Cl)cc1", "AC26": "3680 nM"}

Query: Would you mind telling me what AC26 value was observed for CC(C)COc1ccc(C(=O)OCC(=O)NCc2cccs2)cc1 ?
Reply: 1750 nM

Query: Input CC(C)Oc1ccc(F)cc1-c1cc(C(=O)Nc2ccc(C(C)(C)C)cc2)[nH]n1
Reply: 2040 nM

Query: Input NC(=O)c1ccc(NC(=O)CN2C(=O)NC(c3ccccc3)(c3ccccc3)C2=O)cc1
Reply: 3410 nM
